# tested_system: T1, O9
# T1 chain: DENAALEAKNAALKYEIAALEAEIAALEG
# experiment_notes: two-hybrid library CCNG1;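 also: natural log of median RNA to DNA barcode read ratio; higher means stronger binding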
property_label: interaction score

The examples below pair each entry with its known result.
DENAALEAKNAALKYEIAALEAEIAALEG [O9]; -2.24
DKIAALKAKNAALKYEIAALEAKNAALKG [O16]; -2.26
DEIAALEAENAALEYKIAALKAENAALEG [O15]; -2.28
DEIAALEAKIAALKYKNAALKAKNAALKG [O12]; -1.67

[P] DENAALEAEIAALEYKNAALKAEIAALEG [O5]
[Q] DENAALEAKNAALKYKIAALKAKIAALKG [O2]
[R] DKNAALKAENAALEYKIAALKAKIAALKG [O10]
Req: Sort the 3 binders by interaction score; largest first, smallest last. Quick reminder: the answer is the labels in the order asked.
Resp: R, Q, P
(R: 2.21, Q: 0.313, P: -2.25)
